Tested on: various cell lines of different tumor origins
ASSAY COMMENT: Inhibition of cell proliferation, InCell Analyzer assay
Format: cell-based
COND: Homo sapiens, HCC1395, HCC1395, Breast
ENDPOINT: IC50

>>> measured("COc1cc(N2CCC(N3CCCCC3)CC2)ccc1Nc1nccc(-c2c(-c3cccc(C(=O)Nc4c(F)cccc4F)c3)nc3ccccn23)n1 [Example 22]")
"1000 to 5000 nM"

----------
System: various cell lines of different tumor origins
ASSAY COMMENT: Inhibition of cell proliferation, InCell Analyzer assay
Assay type: cell-based
COND: Homo sapiens, NCI-H520, NCI-H520, Lung
ENDPOINT: IC50

>>> measured("COc1cc(N2CCC(N3CCCCC3)CC2)ccc1Nc1nccc(-c2c(-c3cccc(C(=O)Nc4c(F)cccc4F)c3)nc3ccccn23)n1")
"1000 to 5000 nM"

----------
System: various cell lines of different tumor origins
ASSAY COMMENT: Inhibition of cell proliferation, InCell Analyzer assay
Format: cell-based
COND: Homo sapiens, UACC-257, UACC-257, Skin
ENDPOINT: IC50

>>> measured("COc1cc(N2CCC(N3CCCCC3)CC2)ccc1Nc1nccc(-c2c(-c3cccc(C(=O)Nc4c(F)cccc4F)c3)nc3ccccn23)n1")
"1000 to 5000 nM"

----------
Test system: various cell lines of different tumor origins
ASSAY COMMENT: Inhibition of cell proliferation, InCell Analyzer assay
Assay type: cell-based
COND: Homo sapiens, D283 Med, D283Med, medulloblastoma
ENDPOINT: IC50

>>> measured("COc1cc(N2CCC(N3CCCCC3)CC2)ccc1Nc1nccc(-c2c(-c3cccc(C(=O)Nc4c(F)cccc4F)c3)nc3ccccn23)n1")
"1000 to 5000 nM"

----------
System: various cell lines of different tumor origins
ASSAY COMMENT: Inhibition of cell proliferation, InCell Analyzer assay
Format: cell-based
COND: Homo sapiens, RPMI-6666, RPMI6666, lymphoma - Hodgkin
ENDPOINT: IC50

>>> measured("COc1cc(N2CCC(N3CCCCC3)CC2)ccc1Nc1nccc(-c2c(-c3cccc(C(=O)Nc4c(F)cccc4F)c3)nc3ccccn23)n1 [Example 22]")
"1000 to 5000 nM"

----------
System: various cell lines of different tumor origins
ASSAY COMMENT: Inhibition of cell proliferation, InCell Analyzer assay
Format: cell-based
COND: Homo sapiens, UMUC3, UM-UC-3, Bladder
pIC50: −log10 of the molar value.
ENDPOINT: pIC50

>>> measured("COc1cc(N2CCC(N3CCCCC3)CC2)ccc1Nc1nccc(-c2c(-c3cccc(C(=O)Nc4c(F)cccc4F)c3)nc3ccccn23)n1")
"< 5.30"

----------
System: various cell lines of different tumor origins
ASSAY COMMENT: Inhibition of cell proliferation, InCell Analyzer assay
Type: cell-based
COND: Homo sapiens, SCC-15, SCC-15, H&N
Protocol: C. Inhibition of Cell Proliferation For InCell Analyser assay, various cell lines of different tumor origins were grown to 70-80% confluency in appropriate culture media containing 10% fetal bovine serum at 37° C. in a 5% CO2 incubator. […] By counting the number of nuclei, the proliferation index of compound treated groups were calculated as a percentage relative to the DMSO control, which was set to 100%. The IC50 values were calculated using model 205 in ExcelFit.
ENDPOINT: IC50

>>> measured("COc1cc(N2CCC(N3CCCCC3)CC2)ccc1Nc1nccc(-c2c(-c3cccc(C(=O)Nc4c(F)cccc4F)c3)nc3ccccn23)n1 [Example 22]")
"> 5 µM"

----------
System: various cell lines of different tumor origins
ASSAY COMMENT: Inhibition of cell proliferation, InCell Analyzer assay
Assay type: cell-based
COND: Homo sapiens, HCC70, HCC70, Breast
pIC50: −log10 of the molar value.
ENDPOINT: pIC50

>>> measured("COc1cc(N2CCC(N3CCCCC3)CC2)ccc1Nc1nccc(-c2c(-c3cccc(C(=O)Nc4c(F)cccc4F)c3)nc3ccccn23)n1")
"5.30 to 6.00"

----------
We begin with a simple list: items and their reported pIC50.
SYSTEM: human IGF-1R (NIH-3T3 cells over expressing human IGF-1R) (Homo sapiens, UniProt P08069)
Sequence (P08069 31-1367): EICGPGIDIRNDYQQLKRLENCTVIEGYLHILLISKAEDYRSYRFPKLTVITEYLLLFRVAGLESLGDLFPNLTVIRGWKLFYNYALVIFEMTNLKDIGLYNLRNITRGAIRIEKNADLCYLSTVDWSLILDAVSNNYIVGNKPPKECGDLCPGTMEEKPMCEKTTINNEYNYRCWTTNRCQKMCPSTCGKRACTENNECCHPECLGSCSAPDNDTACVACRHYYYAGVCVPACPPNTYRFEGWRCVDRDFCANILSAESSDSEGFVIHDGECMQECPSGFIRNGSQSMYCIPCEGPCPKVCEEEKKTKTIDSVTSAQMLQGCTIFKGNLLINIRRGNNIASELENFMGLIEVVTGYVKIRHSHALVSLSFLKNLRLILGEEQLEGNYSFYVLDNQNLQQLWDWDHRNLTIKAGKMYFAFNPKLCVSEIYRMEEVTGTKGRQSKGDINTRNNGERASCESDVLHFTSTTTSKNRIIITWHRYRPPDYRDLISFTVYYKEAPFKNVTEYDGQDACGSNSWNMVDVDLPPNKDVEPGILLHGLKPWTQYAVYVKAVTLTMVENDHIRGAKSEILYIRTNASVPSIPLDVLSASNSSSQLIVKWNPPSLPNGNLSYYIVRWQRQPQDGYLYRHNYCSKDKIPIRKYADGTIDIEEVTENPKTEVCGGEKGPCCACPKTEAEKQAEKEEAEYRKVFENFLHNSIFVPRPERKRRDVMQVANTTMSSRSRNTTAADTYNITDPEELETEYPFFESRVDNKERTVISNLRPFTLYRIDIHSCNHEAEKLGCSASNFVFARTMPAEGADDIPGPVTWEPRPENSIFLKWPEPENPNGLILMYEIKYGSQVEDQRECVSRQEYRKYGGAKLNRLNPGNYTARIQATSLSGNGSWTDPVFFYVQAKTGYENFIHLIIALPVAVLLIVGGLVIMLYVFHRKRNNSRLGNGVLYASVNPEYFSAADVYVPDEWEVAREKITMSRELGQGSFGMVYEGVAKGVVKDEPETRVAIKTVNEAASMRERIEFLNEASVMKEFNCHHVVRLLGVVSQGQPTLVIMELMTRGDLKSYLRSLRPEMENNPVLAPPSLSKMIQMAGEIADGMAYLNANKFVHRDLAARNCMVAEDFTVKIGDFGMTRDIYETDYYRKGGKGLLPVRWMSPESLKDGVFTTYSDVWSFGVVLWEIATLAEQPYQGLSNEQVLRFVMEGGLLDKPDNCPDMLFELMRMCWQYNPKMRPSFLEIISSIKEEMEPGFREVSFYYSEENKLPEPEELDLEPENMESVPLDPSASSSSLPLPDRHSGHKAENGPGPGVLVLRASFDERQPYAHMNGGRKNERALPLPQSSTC
ASSAY COMMENT: IGF-1R cellular autophosphorylation (DELFIA)
COND: IGF-1 stimulated
Method: D. IGF-1R and IR Cellular Autophosphorylation (DELFIA) NIH-3T3 cells over expressing human IGF-1R or IR were plated in 96-well plates (10,000 cells/well) in culture media containing 10% fetal bovine serum and incubated at 37° C. in a 5% CO2 incubator. […] The fluorescence signal for cells treated with compounds was expressed as percent relative to 100% stimulation (IGF-1 or insulin stimulated signal). […]
pIC50: −log10 of the molar value.
ENDPOINT: pIC50

>>> measured("CCCN1CCN(c2ccc(Nc3nccc(-c4c(-c5ccc(OC)c(C(=O)Nc6c(F)cccc6F)c5)nc5ccccn45)n3)c(OCC)c2)CC1")
"> 7.00"
>>> measured("COc1ccn2c(-c3ccnc(Nc4ccc(N5CCC(N6CCCCC6)CC5)cc4OC)n3)c(-c3cccc(C(=O)Nc4c(F)cccc4F)c3)nc2c1")
"> 7.00"
>>> measured("CCCc1cc(C2CCN(CCS(C)(=O)=O)CC2)ccc1Nc1nccc(-c2c(-c3cccc(C(=O)Nc4c(F)cccc4F)c3)nc3ccccn23)n1")
"> 7.00"

----------
System: various cell lines of different tumor origins
ASSAY COMMENT: Inhibition of cell proliferation, InCell Analyzer assay
Assay type: cell-based
COND: Homo sapiens, CAPAN-1, Capan-1, Pancreas
ENDPOINT: IC50

>>> measured("COc1cc(N2CCC(N3CCCCC3)CC2)ccc1Nc1nccc(-c2c(-c3cccc(C(=O)Nc4c(F)cccc4F)c3)nc3ccccn23)n1 [Example 22]")
"< 1000 nM"

----------
System: various cell lines of different tumor origins
ASSAY COMMENT: Inhibition of cell proliferation, InCell Analyzer assay
Format: cell-based
COND: Homo sapiens, RPMI-2650, RPMI2650, H&N
Procedure: C. Inhibition of Cell Proliferation For InCell Analyser assay, various cell lines of different tumor origins were grown to 70-80% confluency in appropriate culture media containing 10% fetal bovine serum at 37° C. in a 5% CO2 incubator. […] By counting the number of nuclei, the proliferation index of compound treated groups were calculated as a percentage relative to the DMSO control, which was set to 100%. The IC50 values were calculated using model 205 in ExcelFit.
ENDPOINT: IC50

>>> measured("COc1cc(N2CCC(N3CCCCC3)CC2)ccc1Nc1nccc(-c2c(-c3cccc(C(=O)Nc4c(F)cccc4F)c3)nc3ccccn23)n1")
"1000 to 5000 nM"

----------
System: various cell lines of different tumor origins
ASSAY COMMENT: Inhibition of cell proliferation, InCell Analyzer assay
Format: cell-based
COND: A7, Skin
ENDPOINT: IC50

>>> measured("COc1cc(N2CCC(N3CCCCC3)CC2)ccc1Nc1nccc(-c2c(-c3cccc(C(=O)Nc4c(F)cccc4F)c3)nc3ccccn23)n1 [Example 22]")
"1000 to 5000 nM"

----------
Test system: various cell lines of different tumor origins
ASSAY COMMENT: Inhibition of cell proliferation, InCell Analyzer assay
Type: cell-based
COND: Homo sapiens, SCC-9, SCC-9, H&N
ENDPOINT: IC50

>>> measured("COc1cc(N2CCC(N3CCCCC3)CC2)ccc1Nc1nccc(-c2c(-c3cccc(C(=O)Nc4c(F)cccc4F)c3)nc3ccccn23)n1")
"> 5 µM"

----------
System: various cell lines of different tumor origins
ASSAY COMMENT: Inhibition of cell proliferation, InCell Analyzer assay
Type: cell-based
COND: Homo sapiens, A204, A204, Sarcoma - rhabdomyosarcoma
Procedure: C. Inhibition of Cell Proliferation For InCell Analyser assay, various cell lines of different tumor origins were grown to 70-80% confluency in appropriate culture media containing 10% fetal bovine serum at 37° C. in a 5% CO2 incubator. […] By counting the number of nuclei, the proliferation index of compound treated groups were calculated as a percentage relative to the DMSO control, which was set to 100%. The IC50 values were calculated using model 205 in ExcelFit.
pIC50: −log10 of the molar value.
ENDPOINT: pIC50

>>> measured("COc1cc(N2CCC(N3CCCCC3)CC2)ccc1Nc1nccc(-c2c(-c3cccc(C(=O)Nc4c(F)cccc4F)c3)nc3ccccn23)n1 [Example 22]")
"5.30 to 6.00"

----------
SYSTEM: human IGF-1R (NIH-3T3 cells over expressing human IGF-1R) (Homo sapiens)
ASSAY COMMENT: IGF-1R cellular autophosphorylation (DELFIA)
COND: IGF-1 stimulated
pIC50: −log10 of the molar value.
ENDPOINT: pIC50

>>> measured("Cc1cc(OC2CCN(CCS(C)(=O)=O)CC2)ccc1Nc1nccc(-c2c(-c3cccc(C(=O)Nc4c(F)cccc4F)c3)nc3ccccn23)n1 [Example 8]")
"> 7.00"
>>> measured("CCOc1cc(N2CCN(CCS(C)(=O)=O)CC2)c(C)cc1Nc1nccc(-c2c(-c3cccc(C(=O)Nc4c(F)cccc4F)c3)nc3ccccn23)n1 [Example 246]")
"> 7.00"
>>> measured("Cc1cc(N2CCC(N3CCCCC3)CC2)ccc1Nc1nccc(-c2c(-c3cccc(C(=O)Nc4c(F)cccc4F)c3)nc3ccccn23)n1 [Example 53]")
"> 7.00"
